# TARGET_OR_SYSTEM: Adenosine receptors; A2a & A3 (Homo sapiens) (UniProt P0DMS8+P29274)
# ASSAY_PROCEDURE: Relative binding affinity for human adenosine A2a and A3 receptors
# Assay type: protein assay
VALUE_KIND: Selectivity

{"SMILES_ENTRY": "CCCn1c(=O)c2c(nc3[nH]c(C4CC4)cn32)n(Cc2ccccc2)c1=O", "RESULT": "> 44"}
{"SMILES_ENTRY": "CCCn1c(=O)c2c(nc3[nH]c(C(C)C)cn32)n(Cc2ccccc2)c1=O", "RESULT": "> 32"}

Field: next compound
Which Selectivity value belongs to `CCCn1c(=O)c2c(nc3[nH]c(C(C)(C)C)cn32)n(Cc2ccccc2)c1=O` ?
> 10

---

# TARGET_OR_SYSTEM: Adenosine receptors; A1 & A3 (Homo sapiens) (UniProt P30542+P0DMS8)
# Sequence (P0DMS8 whole entry, looked up): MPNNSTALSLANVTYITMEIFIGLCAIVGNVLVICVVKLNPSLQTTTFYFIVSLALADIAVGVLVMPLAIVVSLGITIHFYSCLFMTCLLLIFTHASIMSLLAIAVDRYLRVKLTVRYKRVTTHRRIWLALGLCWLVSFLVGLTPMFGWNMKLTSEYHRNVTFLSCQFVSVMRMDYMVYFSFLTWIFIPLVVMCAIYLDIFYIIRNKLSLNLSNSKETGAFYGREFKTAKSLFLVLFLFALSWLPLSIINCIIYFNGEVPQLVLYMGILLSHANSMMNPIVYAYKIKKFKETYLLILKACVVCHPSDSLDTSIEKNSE
# Sequence (P30542 whole entry, looked up): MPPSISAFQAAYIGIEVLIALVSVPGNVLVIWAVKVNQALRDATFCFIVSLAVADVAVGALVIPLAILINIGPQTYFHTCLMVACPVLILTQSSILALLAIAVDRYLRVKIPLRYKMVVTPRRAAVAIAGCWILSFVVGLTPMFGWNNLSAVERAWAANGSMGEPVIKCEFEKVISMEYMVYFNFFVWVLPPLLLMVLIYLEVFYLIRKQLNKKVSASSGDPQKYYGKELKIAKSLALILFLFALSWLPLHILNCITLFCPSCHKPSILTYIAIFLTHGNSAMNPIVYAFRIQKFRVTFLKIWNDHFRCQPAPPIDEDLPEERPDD
# ASSAY_PROCEDURE: Relative binding affinity for human adenosine A1 and A3 receptors
# Type: protein assay
VALUE_KIND: Selectivity

{"SMILES_ENTRY": "CCCn1c(=O)c2c(nc3[nH]c(C)c(C)n32)n(Cc2ccccc2)c1=O", "VALUE_KIND": "Selectivity", "RESULT": "> 28"}

Which Selectivity value belongs to `CCCn1c(=O)c2c(nc3[nH]c(CC)cn32)n(Cc2ccccc2)c1=O` ?
> 67

Which Selectivity value belongs to `CCCn1c(=O)c2c(nc3[nH]c(-c4ccc(OC)cc4)cn32)n(Cc2ccccc2)c1=O` ?
> 18

---

# TARGET_OR_SYSTEM: Adenosine receptor A2b (Homo sapiens)
# Sequence (P29275 whole entry): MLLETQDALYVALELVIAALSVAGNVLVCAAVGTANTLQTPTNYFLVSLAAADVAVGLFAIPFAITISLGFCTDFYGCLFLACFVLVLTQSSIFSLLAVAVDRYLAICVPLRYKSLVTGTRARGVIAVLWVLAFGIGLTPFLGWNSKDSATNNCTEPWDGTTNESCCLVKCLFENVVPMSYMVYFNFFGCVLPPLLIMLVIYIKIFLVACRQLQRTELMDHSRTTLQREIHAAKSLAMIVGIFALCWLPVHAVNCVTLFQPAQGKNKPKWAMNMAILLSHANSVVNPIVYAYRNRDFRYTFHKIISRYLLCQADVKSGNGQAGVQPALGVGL
# ASSAY_PROCEDURE: Inhibition of 100 nM NECA-stimulated cAMP production in CHO cells expressing human adenosine A2B receptor
VALUE_KIND: IC50

{"COMPOUND": "CCCn1c(=O)c2c(nc3n2C(C)C(C)=C3)n(Cc2ccccc2)c1=O (stereo not given)", "VALUE_KIND": "IC50", "RESULT": "> 1000 nM"}
{"COMPOUND": "CCCn1c(=O)c2c(nc3[nH]c(C(C)(C)C)cn32)n(Cc2ccccc2)c1=O", "VALUE_KIND": "IC50", "RESULT": "> 1000 nM"}
{"COMPOUND": "CCCn1c(=O)c2c(nc3[nH]c(CC)c(C)n32)n(Cc2ccccc2)c1=O", "VALUE_KIND": "IC50", "RESULT": "> 1000 nM"}
{"COMPOUND": "CCCn1c(=O)c2c(nc3[nH]c(C4CC4)cn32)n(Cc2ccccc2)c1=O", "VALUE_KIND": "IC50", "RESULT": "> 1000 nM"}
{"COMPOUND": "CCCn1c(=O)c2c(nc3[nH]c(CC)cn32)n(Cc2ccccc2)c1=O", "VALUE_KIND": "IC50", "RESULT": "> 1000 nM"}

Which IC50 value belongs to `CCCn1c(=O)c2c(nc3[nH]c(C4CCCCC4)cn32)n(Cc2ccccc2)c1=O` ?
> 1000 nM

---

Attribute: Selectivity
# TARGET_OR_SYSTEM: Adenosine receptors; A1 & A3 (Homo sapiens) (UniProt P30542+P0DMS8)
# ASSAY_PROCEDURE: Relative binding affinity for human adenosine A1 and A3 receptors
# Assay type: protein assay

Previously resolved entries follow.
{"COMPOUND": "CCCn1c(=O)c2c(nc3[nH]c(C4CCCCC4)cn32)n(Cc2ccccc2)c1=O", "TARGET_OR_SYSTEM": "Adenosine receptors; A1 & A3 (Homo sapiens) (UniProt P30542+P0DMS8)", "Selectivity": "> 2"}
{"COMPOUND": "CCCn1c(=O)c2c(nc3[nH]c(CC)c(C)n32)n(Cc2ccccc2)c1=O", "TARGET_OR_SYSTEM": "Adenosine receptors; A1 & A3 (Homo sapiens) (UniProt P30542+P0DMS8)", "Selectivity": "> 17"}
{"COMPOUND": "CCCn1c(=O)c2c(nc3[nH]c(-c4ccccc4)cn32)n(Cc2ccccc2)c1=O", "TARGET_OR_SYSTEM": "Adenosine receptors; A1 & A3 (Homo sapiens) (UniProt P30542+P0DMS8)", "Selectivity": "> 9"}
{"COMPOUND": "CCCn1c(=O)c2c(nc3n2CC(c2ccccc2)=C3)n(Cc2ccccc2)c1=O", "TARGET_OR_SYSTEM": "Adenosine receptors; A1 & A3 (Homo sapiens) (UniProt P30542+P0DMS8)", "Selectivity": "> 5"}
{"COMPOUND": "CCCn1c(=O)c2c(nc3n2C(C)C(C)=C3)n(Cc2ccccc2)c1=O (stereo not given)", "TARGET_OR_SYSTEM": "Adenosine receptors; A1 & A3 (Homo sapiens) (UniProt P30542+P0DMS8)", "Selectivity": "> 13"}
{"COMPOUND": "CCCn1c(=O)c2c(nc3n2CC(C)=C3)n(Cc2ccccc2)c1=O", "TARGET_OR_SYSTEM": "Adenosine receptors; A1 & A3 (Homo sapiens) (UniProt P30542+P0DMS8)", "Selectivity": "> 125"}
{"COMPOUND": "CCCn1c(=O)c2c(nc3[nH]c(C(C)C)cn32)n(Cc2ccccc2)c1=O", "TARGET_OR_SYSTEM": "Adenosine receptors; A1 & A3 (Homo sapiens) (UniProt P30542+P0DMS8)", "Selectivity": "> 15"}
{"COMPOUND": "CCCn1c(=O)c2c(nc3[nH]c(-c4ccc(F)cc4)cn32)n(Cc2ccccc2)c1=O", "TARGET_OR_SYSTEM": "Adenosine receptors; A1 & A3 (Homo sapiens) (UniProt P30542+P0DMS8)", "Selectivity": "> 45"}

Which Selectivity value belongs to `CCCn1c(=O)c2c(nc3[nH]c(C4CC4)cn32)n(Cc2ccccc2)c1=O` ?
15

Which Selectivity value belongs to `CCCn1c(=O)c2c(nc3[nH]c(C(C)(C)C)cn32)n(Cc2ccccc2)c1=O` ?
> 10

The measured values listed here are drawn from ChEMBL document CHEMBL1140322.
